system: Enterococcus faecalis; experiment: Antibacterial activity against Enterococcus faecalis MB76 after 24 hrs by microdilution assay; type: functional; settings: MB76, 24 h
# note: exactly 300 µM is not below, so it is rule not met; use rule met for MIC strictly under it

>>> label_class("CC1=CC(=O)OC1C/C=C(\\C)CC[C@@H]1[C@@]2(C)CCC[C@@](C)(CO)[C@@H]2CC[C@@]1(C)O (some centres undefined)")
"rule met"
>>> label_class("CN[C@H](CC(C)C)C(=O)N[C@H]1C(=O)N[C@@H](CC(N)=O)C(=O)N[C@H]2C(=O)N[C@H]3C(=O)N[C@H](C(=O)N[C@H](C(=O)O)c4cc(O)cc(O)c4-c4cc3ccc4O)[C@H](O)c3ccc(c(Cl)c3)Oc3cc2cc(c3O[C@@H]2O[C@H](CO)[C@@H](O)[C@H](O)[C@H]2O[C@H]2C[C@](C)(N)[C@H](O)[C@H](C)O2)Oc2ccc(cc2Cl)[C@H]1O")
"rule met"
>>> label_class("COc1cc2oc(-c3ccc(O)cc3)cc(=O)c2c(O)c1OC")
"rule not met"
>>> label_class("CC1(C)CCC[C@]2(C)[C@@H](CC[C@](C)(O)[C@H]3CO3)[C@](C)(O)CC[C@@H]12")
"rule met"
>>> label_class("COC(=O)[C@]1(C)CCC[C@@]2(C)[C@H]1[C@@H](O)C[C@@](C)(O)[C@@H]2CC/C(C)=C/[C@H](O)[C@H]1OC(=O)C=C1C")
"rule met"
>>> label_class("COc1ccc(-c2cc(=O)c3c(OC)c(OC)c(OC)cc3o2)cc1")
"rule not met"
>>> label_class("COc1ccc(-c2cc(=O)c3c(OC)c(OC)c(OC)cc3o2)cc1OC")
"rule not met"
>>> label_class("COC(=O)[C@]1(C)CCC[C@@]2(C)[C@H]1CC[C@@](C)(O)[C@@H]2CC/C(C)=C/[C@H](O)[C@H]1OC(=O)C=C1C")
"rule met"
>>> label_class("COC(=O)[C@]1(C)CCC[C@@]2(C)[C@H]1[C@@H](O)C[C@@](C)(O)[C@@H]2CC/C(C)=C/C[C@H]1OC(=O)C=C1C")
"rule met"
